# experimental.system: pooled human IgG (human IgG1,2,3 and 4)
experimental.readout: Enzyme Activity Endpoint Assay (purified): Fab′2
Just the number plus its unit, please.

protein: PRT-337 (protein) MTITSVWTKGVTPPTPEDFRKNNEDVLHAPYLANQGWYDITKAFDGKDNLLCGAATAGNMLHWWFDQNKEEIERYLKKHPEKQKIIFNNQELFDVKAAIDTKDSQTNSKLFNYFRDKAFPNLSARQLGVMPDLVLDMFINGYYLNLGKTQSTDVNRPYQDKDKRGGIFDAVFTRGDQTTLLTARHDLKNKGLNEISDLIKQELTEGKALALSHTYANVSINHVINLWGADFDAEGNLEAIYVTDSDANASIGMKKYFVGRNAHGKVAISAKKIEGDNIGAQVLGLFTLSTGQDIWQKLS
measurement: 0 ng/µL

Query protein follows.
Task: In one line, give reported Enzyme Activity Endpoint Assay (purified): Fab′2 of the entry PRT-499 (protein) MVTSVWTKGVTPPADFRKIVDGNIAYYHAPYVANQGWYDITKTFNGKDDLLCGAATAGNMLHWWFDQNKEYIEAYLKKHPEKQKIMFGDQELLDVRKAINTKGSQKNSELFNYFRDKAFPNLSARRLGVMPDLVLDMFINGYYLNVTKTQTTDVNRTYQEKDKRGGIFDAVFTRGDQSKLLTSRHDLKNKGLKEISDLIKQELTEGKALGLSHTYANVRINHVINLWGADFDSDGNLKAIYVTDSDSNASIGMKKYFVGVNSAGKVAISAKEIKEDNIGAQVLGLFTLSTGQDIWNQTNLEHHHHHH .
Output: 637 ng/µL

The measured values listed here are drawn from patent US20250027068.
